- Assay: physchem
- Study Conditions: water
Listing of recorded solubility by entry.
Report only the number, with the unit mg/mL understood.

>>> recorded_result("N#Cc1ccc(C(c2ccc(C#N)cc2)n2cncn2)cc1")
0.12

Note: attention shifts to another entry.
So what's the measured solubility for this one? CC(C)(C#N)c1cc(Cn2cncn2)cc(C(C)(C)C#N)c1 0.65
